System: OVCAR-3
Test: NCI screen antiproliferative activity, ovarian OVCAR-3
Let's look at some compounds and their measured GI50.
Please provide the amount together with its unit, number first.

COc1cnc2c(c1)C(=O)c1c-2n(CCCN(C)C)c(=O)c2ccccc12	0.94 µM
Cl.O=C1c2cccnc2-c2c1c1ccccc1c(=O)n2CCCNCCO [Compound 30, Hydrochloride]	1.55 µM
O=C1c2cccnc2-c2c1c1ccccc1c(=O)n2CCCn1ccnc1	8.71 µM

Problem: // returns reported GI50 for input COc1cc2c3c(n(CCCN(C)C)c(=O)c2cc1OC)-c1ccncc1C3=O.O=C(O)C(F)(F)F
Result: 7.4 µM

====

Target: human recombinant Top1 (Homo sapiens, UniProt P11387)
Construct: made in house
Experiment: Top1-mediated DNA cleavage assay
Type: biochemical
Settings: semiquantitative, relative to compounds 1 and 2; Table 2
Structures can show the parent of a compound that is named as a salt.
readout_kind: Top1 Cleavage

Solved entries:
COc1cnc2c(c1)C(=O)c1c-2n(CCCN(C)C)c(=O)c2cc(OC)c(OC)cc12.Cl	+++
COc1ccc2c(n1)C(=O)c1c-2n(CCCN2CCOCC2)c(=O)c2cc(OC)c(OC)cc12.O=C(O)C(F)(F)F	+++
COc1cc2c3c(n(CCCN4CCOCC4)c(=O)c2cc1OC)-c1ccncc1C3=O.O=C(O)C(F)(F)F	++
COc1cc2c3c(n(CCCN(C)C)c(=O)c2cc1OC)-c1ncccc1C3=O [Compound 19, Hydrochloride]	+++
COc1cnc2c(c1)C(=O)c1c-2n(CCCN2CCOCC2)c(=O)c2ccccc12	++

Problem: Return reported Top1 Cleavage; argument: COc1cc2c3c(n(CCCN4CCOCC4)c(=O)c2cc1OC)-c1ncccc1C3=O
Result: ++

Problem: Which measured Top1 Cleavage value corresponds to COc1cc2c3c(n(CCCN(C)C)c(=O)c2cc1OC)-c1cccnc1C3=O.O=C(O)C(F)(F)F ?
Result: ++

Problem: Requested field: Top1 Cleavage. Item: COc1cnc2c(c1)C(=O)c1c-2n(CCCN(C)C)c(=O)c2ccccc12
Result: +++

Problem: Name the reported Top1 Cleavage value associated with the compound COc1ccc2c(n1)C(=O)c1c-2n(CCCN(C)C)c(=O)c2cc(OC)c(OC)cc12.O=C(O)C(F)(F)F
Result: +++

Problem: Dear colleague, I am looking for the recorded Top1 Cleavage of the following compound: COc1cnc2c(c1)C(=O)c1c-2n(CCCN2CCOCC2)c(=O)c2cc(OC)c(OC)cc12.Cl
Result: ++

====

Molecular target: human recombinant Top1 (Homo sapiens)
Construct: made in house
Sequence (P11387 1-765): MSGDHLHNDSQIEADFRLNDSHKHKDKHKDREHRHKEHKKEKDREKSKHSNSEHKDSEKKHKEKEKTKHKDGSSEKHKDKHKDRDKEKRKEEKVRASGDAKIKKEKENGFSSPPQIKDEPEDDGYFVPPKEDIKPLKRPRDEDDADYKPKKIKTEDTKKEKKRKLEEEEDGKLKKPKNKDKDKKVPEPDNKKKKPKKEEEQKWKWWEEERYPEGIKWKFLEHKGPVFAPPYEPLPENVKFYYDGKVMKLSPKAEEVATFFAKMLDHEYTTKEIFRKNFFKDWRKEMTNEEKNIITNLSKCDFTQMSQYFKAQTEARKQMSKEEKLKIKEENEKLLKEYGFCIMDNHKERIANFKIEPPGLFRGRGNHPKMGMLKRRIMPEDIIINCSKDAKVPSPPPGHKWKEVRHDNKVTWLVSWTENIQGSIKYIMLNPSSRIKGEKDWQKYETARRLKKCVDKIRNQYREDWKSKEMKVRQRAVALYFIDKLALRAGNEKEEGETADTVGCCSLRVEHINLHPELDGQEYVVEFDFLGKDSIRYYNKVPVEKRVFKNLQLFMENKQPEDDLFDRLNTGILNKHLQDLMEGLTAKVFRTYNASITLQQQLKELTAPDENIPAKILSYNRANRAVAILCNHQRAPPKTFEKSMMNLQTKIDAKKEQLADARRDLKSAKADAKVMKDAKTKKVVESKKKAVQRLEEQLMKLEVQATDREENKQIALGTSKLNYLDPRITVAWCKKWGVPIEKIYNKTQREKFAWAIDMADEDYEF
Assay: Top1-mediated DNA cleavage assay
Format: biochemical
Conditions: semiquantitative, relative to compounds 1 and 2; Table 1
Counter-ions that a name gives are not always drawn.
readout_kind: Top1 Cleavage

Record excerpt, results attached:
COc1cc2c3c(n(CCCN(C)C)c(=O)c2cc1OC)-c1ncccc1C3=O [Compound 19, Hydrochloride]	+++
COc1cc2c3c(n(CCCN4CCOCC4)c(=O)c2cc1OC)-c1ncccc1C3=O	++
O=C1c2cccnc2-c2c1c1ccc([N+](=O)[O-])cc1c(=O)n2CCCN1CCOCC1 [Compound 23, Hydrochloride]	+++
COc1cc2c3c(n(CCCn4ccnc4)c(=O)c2cc1OC)-c1ncccc1C3=O	++

Problem: May I ask what Top1 Cleavage has been recorded for CN(C)CCCn1c2c(c3ccccc3c1=O)C(=O)c1cccnc1-2 [Compound 18, Hydrochloride] ?
Result: +++

Problem: Would you kindly share the measured Top1 Cleavage for O=C1c2cccnc2-c2c1c1ccccc1c(=O)n2CCCn1ccnc1 ?
Result: ++

====

Measured GI50, listed per entry.
System: UACC-62
Test: NCI screen antiproliferative activity, melanoma UACC-62
Express the result in µM but write the number alone.

Problem: // fetch UACC-62 GI50 for COc1cnc2c(c1)C(=O)c1c-2n(CCCN(C)C)c(=O)c2ccccc12 [Compound 63]
Result: 0.54

Problem: What is its GI50 for UACC-62? Entry: COc1cc2c3c(n(CCCN4CCOCC4)c(=O)c2cc1OC)-c1ccncc1C3=O.O=C(O)C(F)(F)F [Compound 128]
Result: 85

Problem: Lookup: GI50 / UACC-62 / COc1cnc2c(c1)C(=O)c1c-2n(CCCN(C)C)c(=O)c2cc(OC)c(OC)cc12.Cl [Compound 55, Hydrochloride]
Result: 3.9

Problem: Any idea what GI50 came out for COc1cc2c3c(n(CCCNCCO)c(=O)c2cc1OC)-c1ncccc1C3=O.Cl [Compound 31, Hydrochloride] on UACC-62?
Result: 0.12

Problem: Record Cl.O=C1c2cccnc2-c2c1c1ccccc1c(=O)n2CCCNCCO [Compound 30, Hydrochloride] : what is its GI50 with UACC-62?
Result: 3.09

Problem: Given the entry COc1cnc2c(c1)C(=O)c1c-2n(CCCN2CCOCC2)c(=O)c2cc([N+](=O)[O-])ccc12 [Compound 66] , what GI50 was observed with UACC-62?
Result: 0.04

Problem: Form field: GI50 recorded for COc1cc2c3c(n(CCCN)c(=O)c2cc1OC)-c1ncccc1C3=O.Cl [Compound 32, Hydrochloride] with UACC-62 (enter value)
Result: 8.13

====

Recorded log10 of GI50 for the following compounds
Tested on: UACC-62
Assay: NCI screen antiproliferative activity, melanoma UACC-62
Reminder: these figures are log10 of reported GI50, in µM before transformation.

COc1cc2c3c(n(CCCN4CCOCC4)c(=O)c2cc1OC)-c1cnccc1C3=O.O=C(O)C(F)(F)F	1.68
COc1cnc2c(c1)C(=O)c1c-2n(CCCN2CCOCC2)c(=O)c2ccccc12	0.23

Problem: Could you share which log10 of GI50 value was measured for COc1cnc2c(c1)C(=O)c1c-2n(CCCN2CCOCC2)c(=O)c2cc(OC)c(OC)cc12.Cl [Compound 56, Hydrochloride] ?
Result: -0.66

====

# GI50 listing for each entry below
Test system: HCT-116
Assay: NCI screen antiproliferative activity, colon HCT-116
Number only, in µM; omit the unit.

Solved entries:
Cl.O=C1c2cccnc2-c2c1c1ccccc1c(=O)n2CCCNCCO [Compound 30, Hydrochloride]	0.3
COc1cc2c3c(n(CCCN4CCOCC4)c(=O)c2cc1OC)-c1ncccc1C3=O	0.22
COc1cc2c3c(n(CCCN4CCOCC4)c(=O)c2cc1OC)-c1cnccc1C3=O.O=C(O)C(F)(F)F	2.5
COc1cc2c3c(n(CCCN(C)C)c(=O)c2cc1OC)-c1ccncc1C3=O.O=C(O)C(F)(F)F	0.62
COc1cnc2c(c1)C(=O)c1c-2n(CCCN2CCOCC2)c(=O)c2ccccc12	2.5
COc1cnc2c(c1)C(=O)c1c-2n(CCCN(C)C)c(=O)c2ccccc12	0.34

Problem: Checklist item: GI50 tested on HCT-116, entry COc1cc2c3c(n(CCCN)c(=O)c2cc1OC)-c1ncccc1C3=O.Cl [Compound 32, Hydrochloride] , value?
Result: 0.38

Problem: Quick check: GI50 on HCT-116, item O=C1c2cccnc2-c2c1c1ccccc1c(=O)n2CCCn1ccnc1 ?
Result: 1.2

Problem: Please state recorded GI50 (tested on HCT-116) of Cl.O=C1c2cccnc2-c2c1c1ccccc1c(=O)n2CCCN1CCOCC1 [Compound 21, Hydrochloride]
Result: 1.86
